Assay: Solubility
Assay type: physicochemical
Conditions: water; read-out: solubility limit in water
PROPERTY_NAME: solubility

response.value for `CCCCCCCCCCCCCCCCCCCCCCCCCCCCCCO` (field: solubility) = ~0.3 µg/mL

// provenance: patent US4150970A
